The values you see were collected from patent US4138403A.

The following compounds are shown together with reported inhibition at 40 µg/mL values.
# Target desc: β-lactamase E.Coli JT4 (Escherichia coli, UniProt P62593)
# Sequence (P62593 24-286 limits assumed): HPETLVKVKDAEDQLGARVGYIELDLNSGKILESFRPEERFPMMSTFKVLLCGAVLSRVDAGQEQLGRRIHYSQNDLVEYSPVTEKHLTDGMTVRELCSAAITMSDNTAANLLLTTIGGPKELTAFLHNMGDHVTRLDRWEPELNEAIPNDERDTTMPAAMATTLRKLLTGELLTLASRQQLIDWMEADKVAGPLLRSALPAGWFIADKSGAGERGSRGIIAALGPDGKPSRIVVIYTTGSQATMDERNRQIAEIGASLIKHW
# Protocol summary: β-lactamase inhibition, E.Coli JT4 enzyme
# Assay type: biochemical
# Conditions: read-out: % Inhibition of - lactamases at 40 μg/ml, E.Coli JT4
Response body: numeric value in %, unit text excluded.

Reference set, count: 3
*Q* Quick one: give measured inhibition at 40 µg/mL for O=C(OCc1ccccc1)[C@@H]1O[C@@H]2CC(=O)N2[C@H]1C(=O)OCc1ccccc1
*A* 65

*Q* Please give the documented inhibition at 40 µg/mL of COC(=O)[C@H]1[C@H](CBr)O[C@@H]2CC(=O)N21 (relative stereo)
*A* 42

*Q* Name the recorded inhibition at 40 µg/mL of the compound listed here: COC(=O)[C@H]1[C@H](CCO)O[C@@H]2CC(=O)N21 (relative stereo)
*A* 15

Continuing:
*Q* Input COC(=O)[C@H]1[C@H](CCOS(=O)(=O)c2ccc(C)cc2)O[C@@H]2CC(=O)N21 (relative stereo) , output reported inhibition at 40 µg/mL.
*A* 33

*Q* Let me know recorded inhibition at 40 µg/mL for O=C(O)[C@H]1CO[C@@H]2CC(=O)N12 (relative stereo) , thanks.
*A* 28

---

# Target desc: β-lactamase Ps. dalgl. (Pseudomonas aeruginosa)
# Sequence (P16897 18-288): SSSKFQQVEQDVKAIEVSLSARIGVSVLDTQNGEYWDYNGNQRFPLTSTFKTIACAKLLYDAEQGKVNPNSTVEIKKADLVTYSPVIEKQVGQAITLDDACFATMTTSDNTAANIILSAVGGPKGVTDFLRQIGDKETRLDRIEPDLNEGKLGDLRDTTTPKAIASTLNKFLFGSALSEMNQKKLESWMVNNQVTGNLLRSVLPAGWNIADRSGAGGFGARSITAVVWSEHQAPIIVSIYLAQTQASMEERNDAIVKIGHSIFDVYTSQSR
# Protocol summary: β-lactamase inhibition, Ps. dalgl. enzyme
# Format: biochemical
# Conditions: read-out: % Inhibition of - lactamases at 40 μg/ml, Ps. dalgl.
inhibition at 40 µg/mL values, listed per item

Answered examples (2):
*Q* Please report inhibition at 40 µg/mL with β-lactamase Ps. dalgl. (Pseudomonas aeruginosa) for item COC(=O)[C@H]1[C@H](CBr)O[C@@H]2CC(=O)N21 (relative stereo) .
*A* 17%

*Q* Give inhibition at 40 µg/mL for this entry on β-lactamase Ps. dalgl. (Pseudomonas aeruginosa): COC(=O)[C@H]1[C@H](CCOS(=O)(=O)c2ccc(C)cc2)O[C@@H]2CC(=O)N21 (relative stereo)
*A* 11%

More entries:
*Q* Jot down inhibition at 40 µg/mL (β-lactamase Ps. dalgl. (Pseudomonas aeruginosa)) of COC(=O)[C@H]1[C@H](CCO)O[C@@H]2CC(=O)N21 (relative stereo) .
*A* 0%

*Q* Output reported inhibition at 40 µg/mL of the molecule O=C(OCc1ccccc1)[C@@H]1O[C@@H]2CC(=O)N2[C@H]1C(=O)OCc1ccccc1 on β-lactamase Ps. dalgl. (Pseudomonas aeruginosa).
*A* 26%

*Q* Fill in: inhibition at 40 µg/mL on β-lactamase Ps. dalgl. (Pseudomonas aeruginosa), entry O=C(O)[C@H]1CO[C@@H]2CC(=O)N12 (relative stereo)
*A* 0%

---

# Tested on: β-lactamase Kleb. ε 70
# Protocol summary: β-lactamase inhibition, Kleb. ε 70 enzyme
# Type: biochemical
Use Satisfied when the recorded % Inhibition of - lactamases at 40 μg/ml, Kleb. ε 70 is no lower than 4%; use Not satisfied when it is lower.

*Q* Dear colleague, could you confirm whether COC(=O)[C@H]1[C@H](CCOS(=O)(=O)c2ccc(C)cc2)O[C@@H]2CC(=O)N21 (relative stereo) has % Inhibition of - lactamases at 40 μg/ml, Kleb. ε 70 at or above 4%?
*A* Not satisfied

*Q* Does % Inhibition of - lactamases at 40 μg/ml, Kleb. ε 70 meet or surpass 4% for O=C(OCc1ccccc1)[C@@H]1O[C@@H]2CC(=O)N2[C@H]1C(=O)OCc1ccccc1 [CO2 CH2 Ph, CO2 CH2 Ph, (2R,3R,5R)] ?
*A* Satisfied

*Q* Kindly determine if % Inhibition of - lactamases at 40 μg/ml, Kleb. ε 70 recorded for COC(=O)[C@H]1[C@H](CCO)O[C@@H]2CC(=O)N21 (relative stereo) [CH2 CH2 OH, Me, (2RS,3SR,5RS)] is above or exactly 4%.
*A* Satisfied

Consider the additional compound presented here.
*Q* Quick check: does O=C(O)[C@H]1CO[C@@H]2CC(=O)N12 (relative stereo) [H, Na, (2RS,5RS)] have % Inhibition of - lactamases at 40 μg/ml, Kleb. ε 70 greater than or equal to 4%?
*A* Satisfied
